target: soluble human BACE (Homo sapiens, UniProt P56817); construct: cells secreting human recombinant soluble BACE; made in house; conditioned medium; experiment: BACE activity Cell Free Assay (ELISA of cleaved synthetic APP substrate); format: biochemical
Sequence (P56817 46-457 limits assumed): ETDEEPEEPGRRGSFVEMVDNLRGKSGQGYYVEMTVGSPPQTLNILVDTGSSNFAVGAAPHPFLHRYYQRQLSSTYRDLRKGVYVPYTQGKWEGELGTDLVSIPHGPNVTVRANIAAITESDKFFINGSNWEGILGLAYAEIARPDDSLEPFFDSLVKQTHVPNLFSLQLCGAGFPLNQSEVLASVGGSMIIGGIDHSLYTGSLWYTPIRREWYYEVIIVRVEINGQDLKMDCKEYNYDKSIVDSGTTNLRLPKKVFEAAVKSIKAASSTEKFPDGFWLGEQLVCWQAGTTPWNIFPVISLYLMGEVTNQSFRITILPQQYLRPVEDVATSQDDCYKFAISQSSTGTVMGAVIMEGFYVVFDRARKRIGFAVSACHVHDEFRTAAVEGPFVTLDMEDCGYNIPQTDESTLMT
Counter-ions that a name gives are not always drawn.
Listed molecules paired with reported IC50

Field: example entries. Status: answers known.
CC1CC2(CCC(=O)N2c2cccc(F)c2)CCN1Cc1cccc(-c2cccnc2)c1 (racemic) :: 100 to 300 µM
CC[C@@H](C)Oc1cccc(CN2CC[C@]3(C=CC(=O)N3c3cccc(F)c3)C[C@@H]2C)c1 :: 1 to 10 µM

Noted for CC1CC2(CCC(=O)N2c2cccc(F)c2)CCN1Cc1ccc(O)c(Cl)c1 (racemic) : its IC50 reads 10 to 100 µM

Noted for CC(C)Oc1cccc(CN2CC[C@]3(CC(O)C(=O)N3c3cccc(F)c3)C[C@@H]2C)c1 (mixture of isomers) [Example 92, hydrochloride salt] : its IC50 reads 10 to 100 µM

Noted for CC1CC2(C=CC(=O)N2c2cccc(F)c2)CCN1Cc1c[nH]c2cc(C(F)(F)F)ccc12 (racemic) : its IC50 reads 10 to 100 µM

The measured values listed here are drawn from patent US20110224231A1.
